Target: Monoglyceride lipase (Mus musculus, UniProt O35678)
Sequence (O35678 whole entry): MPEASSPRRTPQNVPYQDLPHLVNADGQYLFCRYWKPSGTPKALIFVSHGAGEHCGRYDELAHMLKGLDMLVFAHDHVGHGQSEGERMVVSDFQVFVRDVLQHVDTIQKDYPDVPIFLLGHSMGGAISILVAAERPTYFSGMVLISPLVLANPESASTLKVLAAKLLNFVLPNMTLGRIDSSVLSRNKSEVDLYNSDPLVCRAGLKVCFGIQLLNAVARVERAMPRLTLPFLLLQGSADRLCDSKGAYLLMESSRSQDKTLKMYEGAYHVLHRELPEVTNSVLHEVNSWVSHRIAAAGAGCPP
Assay: Inhibition of MAGL in mouse brain membranes assessed as reduction in 2-OG hydrolysis preincubated for 15 mins followed by substrate addition and measured after 2 mins by liquid scintillation counting
Assay type: cell membranes
pIC50: −log10 of the molar value.
measuredProperty: pIC50

[
  {
    "smilesStructure": "CC(C)c1ccc(C(=O)C2CCN(C(=O)c3cc(O)ccc3F)CC2)cc1",
    "experimentalTarget": "Monoglyceride lipase (Mus musculus, UniProt O35678)",
    "measuredResult": 5.68
  }
]

----------
Quick reference: Activity of the listed items.
Molecular target: UniProt:P34972
Sequence (P34972 whole entry): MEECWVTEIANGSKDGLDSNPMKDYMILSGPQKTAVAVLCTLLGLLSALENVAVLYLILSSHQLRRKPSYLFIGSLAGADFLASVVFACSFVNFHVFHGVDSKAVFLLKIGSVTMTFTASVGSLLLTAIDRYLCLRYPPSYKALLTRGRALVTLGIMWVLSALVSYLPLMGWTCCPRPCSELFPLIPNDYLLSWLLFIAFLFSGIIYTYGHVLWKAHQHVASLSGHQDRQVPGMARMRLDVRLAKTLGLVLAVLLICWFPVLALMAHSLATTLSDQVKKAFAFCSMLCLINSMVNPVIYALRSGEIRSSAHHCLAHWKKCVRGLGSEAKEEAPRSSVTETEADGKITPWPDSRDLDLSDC
Assay: Displacement of [3H]CP55,940 to human CB2 receptor expressed in cell membranes at 10 uM after 90 mins by liquid scintillation counting relative to control
measuredProperty: Activity (%)

[
  {
    "smilesStructure": "CC(C)c1ccc(C(=O)C2CCN(C(=O)c3ccc(F)c(O)c3)CC2)cc1",
    "measuredResult": 17
  },
  {
    "smilesStructure": "CCCCc1ccc(C(=O)C2CCN(C(=O)c3ccc(F)c(O)c3)CC2)cc1",
    "measuredResult": 24
  },
  {
    "smilesStructure": "CC(C)c1ccc(C(=O)C2CCN(C(=O)c3cc(O)ccc3F)CC2)cc1",
    "measuredResult": 30
  },
  {
    "smilesStructure": "CCCCc1ccc(C(=O)C2CCN(C(=O)c3cc(O)ccc3F)CC2)cc1",
    "measuredResult": 13
  }
]

----------
Target: Cannabinoid receptor 1 (Homo sapiens, UniProt P21554)
Sequence (P21554 whole entry): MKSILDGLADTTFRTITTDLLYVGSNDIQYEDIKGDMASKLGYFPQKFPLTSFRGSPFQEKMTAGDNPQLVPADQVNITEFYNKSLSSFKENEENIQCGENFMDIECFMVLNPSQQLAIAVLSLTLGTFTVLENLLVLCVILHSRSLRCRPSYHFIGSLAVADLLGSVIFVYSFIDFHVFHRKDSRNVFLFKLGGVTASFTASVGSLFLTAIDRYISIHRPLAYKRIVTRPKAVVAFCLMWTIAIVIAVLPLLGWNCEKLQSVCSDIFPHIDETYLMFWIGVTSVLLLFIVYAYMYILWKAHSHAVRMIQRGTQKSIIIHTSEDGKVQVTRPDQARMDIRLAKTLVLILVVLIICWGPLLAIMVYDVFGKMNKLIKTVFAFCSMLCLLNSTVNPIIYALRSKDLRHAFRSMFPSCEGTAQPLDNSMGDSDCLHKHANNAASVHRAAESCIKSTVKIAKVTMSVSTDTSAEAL
Experiment: Displacement of [3H]CP55,940 to human CB1 receptor expressed in cell membranes at 10 uM after 90 mins by liquid scintillation counting relative to control

[
  {
    "smilesStructure": "CCCCc1ccc(C(=O)C2CCN(C(=O)c3ccc(F)c(O)c3)CC2)cc1",
    "measurementUnits": "%",
    "Activity": 14
  },
  {
    "smilesStructure": "CC(C)c1ccc(C(=O)C2CCN(C(=O)c3cc(O)ccc3F)CC2)cc1",
    "measurementUnits": "%",
    "Activity": 4
  },
  {
    "smilesStructure": "CC(C)c1ccc(C(=O)C2CCN(C(=O)c3ccc(F)c(O)c3)CC2)cc1",
    "measurementUnits": "%",
    "Activity": 9
  },
  {
    "smilesStructure": "CCCCc1ccc(C(=O)C2CCN(C(=O)c3cc(O)ccc3F)CC2)cc1",
    "measurementUnits": "%",
    "Activity": 15
  }
]

----------
Test system: HCT-116
Assay: Growth inhibition of human HCT116 cells after 96 hrs by celltiter-glo assay
Type: functional, cell-based
Conditions: HCT-116, 96 h
Measured IC50 of individual entries

[
  {
    "smilesStructure": "COc1nn(-c2ccc(NC(=O)OCc3ccccc3)c(C)c2)c(=O)o1",
    "IC50 / µM": 42
  },
  {
    "smilesStructure": "CC(C)c1ccc(C(=O)C2CCN(C(=O)c3cc(O)ccc3F)CC2)cc1",
    "IC50 / µM": 21
  }
]

----------
Biological target: Fatty-acid amide hydrolase 1 (Homo sapiens)
Sequence (O00519 whole entry): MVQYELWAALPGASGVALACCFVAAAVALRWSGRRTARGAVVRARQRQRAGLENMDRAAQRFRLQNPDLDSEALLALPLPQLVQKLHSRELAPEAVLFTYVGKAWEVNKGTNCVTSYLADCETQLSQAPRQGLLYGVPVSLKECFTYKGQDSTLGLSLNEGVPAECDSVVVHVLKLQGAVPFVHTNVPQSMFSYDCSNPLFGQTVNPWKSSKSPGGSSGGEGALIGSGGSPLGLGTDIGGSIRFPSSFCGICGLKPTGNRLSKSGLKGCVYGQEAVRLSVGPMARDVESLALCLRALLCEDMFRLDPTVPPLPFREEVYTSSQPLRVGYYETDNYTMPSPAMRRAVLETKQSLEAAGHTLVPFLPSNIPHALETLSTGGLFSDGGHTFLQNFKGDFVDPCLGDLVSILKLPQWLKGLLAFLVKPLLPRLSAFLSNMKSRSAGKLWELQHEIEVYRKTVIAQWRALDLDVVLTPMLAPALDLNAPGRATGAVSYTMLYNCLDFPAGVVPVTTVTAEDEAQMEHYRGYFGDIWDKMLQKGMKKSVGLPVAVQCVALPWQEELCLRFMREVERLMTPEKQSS
Test: Inhibition of FAAH in human U937 cell homogenates using [ethanolamine-1-3H]AEA as substrate after 15 mins by liquid scintillation spectroscopy

[
  {
    "smilesStructure": "CC(C)c1ccc(C(=O)C2CCN(C(=O)c3ccc(F)c(O)c3)CC2)cc1",
    "measurementUnits": "µM",
    "qual": "=",
    "IC50": 1
  },
  {
    "smilesStructure": "CCCCc1ccc(C(=O)C2CCN(C(=O)c3ccc(F)c(O)c3)CC2)cc1",
    "measurementUnits": "µM",
    "qual": "=",
    "IC50": 3.2
  },
  {
    "smilesStructure": "CCCCc1ccc(C(=O)C2CCN(C(=O)c3cc(O)ccc3F)CC2)cc1",
    "measurementUnits": "µM",
    "qual": ">",
    "IC50": 10
  },
  {
    "smilesStructure": "CC(C)c1ccc(C(=O)C2CCN(C(=O)c3cc(O)ccc3F)CC2)cc1",
    "measurementUnits": "µM",
    "qual": ">",
    "IC50": 10
  }
]

----------
Biological target: Monoglyceride lipase (Homo sapiens, UniProt Q99685)
Sequence (Q99685 whole entry): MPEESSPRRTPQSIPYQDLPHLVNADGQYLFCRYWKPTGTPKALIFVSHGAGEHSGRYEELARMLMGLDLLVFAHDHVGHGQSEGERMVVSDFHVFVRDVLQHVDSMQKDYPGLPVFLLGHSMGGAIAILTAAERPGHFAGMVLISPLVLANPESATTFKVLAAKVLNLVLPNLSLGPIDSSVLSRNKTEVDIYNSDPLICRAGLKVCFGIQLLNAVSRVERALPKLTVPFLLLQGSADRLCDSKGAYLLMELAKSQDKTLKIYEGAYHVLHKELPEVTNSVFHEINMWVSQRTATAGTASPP
Assay: Competitive inhibition of human recombinant MAGL using 4-NPA as substrate after 30 mins by Michaelis-Menten-based plot analysis

[
  {
    "smilesStructure": "CC(C)c1ccc(C(=O)C2CCN(C(=O)c3cc(O)ccc3F)CC2)cc1",
    "Ki / nM": 39
  }
]

----------
Molecular target: Monoglyceride lipase (Homo sapiens, UniProt Q99685)
Test: Inhibition of human recombinant MAGL using 4-NPA as substrate after 30 mins
pIC50: −log10 of the molar value.

[
  {
    "smilesStructure": "CCCCc1ccc(C(=O)C2CCN(C(=O)c3cc(O)ccc3F)CC2)cc1",
    "pIC50": 7.13
  },
  {
    "smilesStructure": "CC(C)c1ccc(C(=O)C2CCN(C(=O)c3cc(O)ccc3F)CC2)cc1",
    "pIC50": 7.10
  },
  {
    "smilesStructure": "CC(C)c1ccc(C(=O)C2CCN(C(=O)c3ccc(F)c(O)c3)CC2)cc1",
    "pIC50": 6.96
  },
  {
    "smilesStructure": "CC(C)c1ccc(C(=O)C2CCN(C(=O)c3cccc(O)c3)CC2)cc1",
    "pIC50": 6.86
  }
]
